- measurement target: human VPAC2 (Homo sapiens)
- Construct: expressed in transfected cells
- Sequence (P41587 24-438): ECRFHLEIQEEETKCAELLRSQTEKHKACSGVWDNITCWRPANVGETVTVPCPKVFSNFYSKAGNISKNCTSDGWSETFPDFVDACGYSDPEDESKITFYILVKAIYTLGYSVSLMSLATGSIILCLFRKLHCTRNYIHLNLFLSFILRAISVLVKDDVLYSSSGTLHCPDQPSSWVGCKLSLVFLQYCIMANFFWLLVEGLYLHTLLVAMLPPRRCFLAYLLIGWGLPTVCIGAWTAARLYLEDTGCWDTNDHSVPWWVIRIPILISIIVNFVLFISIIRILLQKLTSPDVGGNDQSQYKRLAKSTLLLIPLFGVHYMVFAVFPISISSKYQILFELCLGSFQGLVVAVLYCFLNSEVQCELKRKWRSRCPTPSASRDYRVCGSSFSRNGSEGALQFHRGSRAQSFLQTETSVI
- test method notes: Filter binding assay, membranes of stable VPAC2 cell line, 125I-labeled VIP tracer (Table 2)
- test context: read-out: Human VPAC2 Receptor Binding
Where no end group is shown, it is not given here. [ ]: non-standard residue; d: D form. The star is where a group is joined. Hexanoyl = CCCCCC(=O)*; Aib = CC(C)(N)C(=O)O
Each entry below carries its recorded IC50.
Supply the numeric figure in nM, leaving out any unit text.

The examples below pair each entry with its known result.
substance	reading unit	IC50
Hexanoyl-HSDAVFTDNYTRLRKQVAAKKLLQSIKNKRYGGPSSGAPPPS [Agonist P132]	nM	1.51
Hexanoyl-HSDAVFTDNYTRLRKQVAAKKYLQSFKNKRYGGPSSGAPPPS [Agonist P106]	nM	0.22
Hexanoyl-HSDAVFTKNYTRLRKQVAAKKYLQSIKNKRYGGPSSGAPPPS [Agonist P160]	nM	4.77
Hexanoyl-HSDAVFTDNYTRLRKQVAAKAYLQSIKNKRYGGPSSGAPPPS [Agonist P184]	nM	0.23
Hexanoyl-HSDAVFTDNYTRLLAKVALQKYLQSIKNKRYGGPSSGAPPPS [Agonist P196]	nM	0.85

Param item = Hexanoyl-HSDAVFTDNYTRLQ[Aib]QVAA[Aib]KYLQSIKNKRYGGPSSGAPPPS [Agonist P302] ; retrieve measured IC50.
1.62

// repeat for Hexanoyl-HSDAVFTDNYTRLK[Aib]QVAA[Aib]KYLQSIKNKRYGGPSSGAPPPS [Agonist P318] and report
0.63

// repeat for HSDAVFTDNYTRLRKQVAAKKYLQSIKNRRYGGPSSGAPPPS [Agonist P25] and report
1.65
